Listing: OD max of selected binders
test-system: T1, di muNKG2D ECD Fc avi (murine, biotinylated at the avi-tag)
T1 construct: Dimeric fusion of murine NKG2D ECD to the C-terminus of an avi-tagged human IgG1 Fc; also called recombinant murine NKG2D
T1 sequence (chain, as listed by the source limits assumed): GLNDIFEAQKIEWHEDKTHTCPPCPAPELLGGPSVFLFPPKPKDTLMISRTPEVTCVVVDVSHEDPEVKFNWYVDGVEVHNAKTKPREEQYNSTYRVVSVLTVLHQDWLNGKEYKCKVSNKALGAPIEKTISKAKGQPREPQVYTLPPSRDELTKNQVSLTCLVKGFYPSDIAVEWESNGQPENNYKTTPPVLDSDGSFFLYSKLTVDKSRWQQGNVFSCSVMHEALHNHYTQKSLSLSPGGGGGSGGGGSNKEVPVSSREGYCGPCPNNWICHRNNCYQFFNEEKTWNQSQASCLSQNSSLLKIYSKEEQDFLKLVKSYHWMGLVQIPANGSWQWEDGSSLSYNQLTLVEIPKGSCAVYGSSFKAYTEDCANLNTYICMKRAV
assay-procedure: ELISA; biotinylated antigen on streptavidin plate
Numbers only; they are read as OD.

{"columns": ["binder", "OD max, OD"],
 "data": [
  ["anti-NKG2D antibody clone 395 (antibody, V domains shown, From transgenic rabbits; rabbit VH, human VL) VH: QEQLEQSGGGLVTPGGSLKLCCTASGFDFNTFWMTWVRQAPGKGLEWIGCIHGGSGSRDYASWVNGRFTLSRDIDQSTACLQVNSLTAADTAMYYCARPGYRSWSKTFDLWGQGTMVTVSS VL: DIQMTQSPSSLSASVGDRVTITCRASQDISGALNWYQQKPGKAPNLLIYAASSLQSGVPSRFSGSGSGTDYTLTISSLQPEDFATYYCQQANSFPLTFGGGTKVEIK", 0.3],
  ["anti-NKG2D antibody clone 230 (antibody, V domains shown, From transgenic rabbits) VH: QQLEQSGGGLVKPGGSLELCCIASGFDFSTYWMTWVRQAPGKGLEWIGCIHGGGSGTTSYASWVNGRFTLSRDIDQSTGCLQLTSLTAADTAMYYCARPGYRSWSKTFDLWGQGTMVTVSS VL: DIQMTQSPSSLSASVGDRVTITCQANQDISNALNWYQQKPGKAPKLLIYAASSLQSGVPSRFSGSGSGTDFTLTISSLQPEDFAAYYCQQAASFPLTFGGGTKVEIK", 0.3]
]}

Consider the record given below.
// field: OD max; key: anti-NKG2D antibody clone 018 (antibody, V domains shown, From transgenic rabbits) VH: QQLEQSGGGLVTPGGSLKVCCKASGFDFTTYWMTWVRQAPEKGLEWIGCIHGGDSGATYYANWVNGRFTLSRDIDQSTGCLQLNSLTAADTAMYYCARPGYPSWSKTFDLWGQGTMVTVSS VL: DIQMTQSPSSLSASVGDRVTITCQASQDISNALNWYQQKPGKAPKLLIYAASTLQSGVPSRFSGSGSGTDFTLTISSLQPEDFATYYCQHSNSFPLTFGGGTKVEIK ; value = 0.1
